Origin of measurements: paper PMC11012124

Test system: LOX IMVI
Conditions: human, 48 h
parameter measured: CC50 (µM)
Quick note: give the figure in µM, leave out the unit.

Ask | Value lookup for CC50; key = COc1cc(/C=C/C(=O)c2ccc(S(=O)(=O)NCCNc3nc(Nc4ccc(F)cc4)nc(N(C)C)n3)cc2)cc(OC)c1OC [24d]
Reply | 5.93

---

Test system: RXF 393
Test: cells
Settings: Homo sapiens, RXF 393, 48 h
Listing: GI50 of selected compounds
Quick note: give the figure in µM, leave out the unit.

Cc1ccc(C2CC(c3ccc(Nc4nc(NCCO)nc(Nc5ccc(Cl)cc5)n4)cc3)=Nc3c(N)nc(N)nc3N2)cc1 (stereo not shown) [33b]; 1.45
CN(C)c1nc(NCCNS(=O)(=O)c2ccc(C3=Nc4c(N)nc(N)nc4NC(c4ccc(F)cc4)C3)cc2)nc(Nc2ccc(F)cc2)n1 (stereo not shown) [31f]; 2.48
CN(C)c1nc(NCCNS(=O)(=O)c2ccc(C(=O)/C=C/c3ccc(Cl)cc3)cc2)nc(N2CCOCC2)n1 [23e]; 12.8
CN(C)c1nc(NCCNS(=O)(=O)c2ccc(C3=Nc4c(N)nc(N)nc4NC(c4ccc(Cl)cc4)C3)cc2)nc(Nc2ccc(F)cc2)n1 (stereo not shown) [31e]; 2.27
COc1cc(/C=C/C(=O)c2ccc(C)cc2)ccc1Oc1nc(NCCO)nc(N2CCOCC2)n1 [20b]; 2.07
Nc1nc(N)c2c(n1)NC(c1ccc(Cl)cc1)CC(c1ccc(Nc3nc(NCCO)nc(Nc4ccc(Cl)cc4)n3)cc1)=N2 (stereo not shown) [33e]; 1.54

Consider the record given below.
Ask | Value lookup for GI50; key = Nc1nc(N)c2c(n1)NC(c1ccc(F)cc1)CC(c1ccc(Nc3nc(NCCO)nc(Nc4ccc(Cl)cc4)n3)cc1)=N2 (stereo not shown) [33f]
Reply | 1.17

---

Tested on: NCI-H226
Assay: cells
Details: Homo sapiens, NCI-H226, 48 h, read-out: LC50
parameter measured: CC50 (µM)
Quick note: give the figure in µM, leave out the unit.

Recorded CC50, per entry:
CN(C)c1nc(NCCNS(=O)(=O)c2ccc(C(=O)/C=C/c3ccc(C(F)(F)F)cc3)cc2)nc(N2CCOCC2)n1 [23g]; 78.9
CN(C)c1nc(NCCNS(=O)(=O)c2ccc(C(=O)/C=C/c3ccc(F)cc3)cc2)nc(N2CCOCC2)n1 [23f]; 64.7
CN(C)c1nc(NCCNS(=O)(=O)c2ccc(C3=Nc4c(N)nc(N)nc4NC(c4ccc(C(F)(F)F)cc4)C3)cc2)nc(Nc2ccc(F)cc2)n1 (centres unmarked) [31g]; 86
CN(C)c1nc(NCCNS(=O)(=O)c2ccc(C(=O)/C=C/c3ccc(Cl)cc3)cc2)nc(N2CCOCC2)n1 [23e]; 73.8

Ask | Value lookup for CC50; key = Nc1nc(N)c2c(n1)NC(c1ccc(F)cc1)CC(c1ccc(Nc3nc(NCCO)nc(Nc4ccc(Cl)cc4)n3)cc1)=N2 (centres unmarked) [33f]
Reply | 37.9

Ask | COc1cc(/C=C/C(=O)c2ccc(S(=O)(=O)NCCNc3nc(N(C)C)nc(N4CCOCC4)n3)cc2)cc(OC)c1OC [23d] ?
Reply | 72.4

Ask | CN(C)c1nc(NCCNS(=O)(=O)c2ccc(C(=O)/C=C/c3ccc(F)cc3)cc2)nc(Nc2ccc(F)cc2)n1 [24f] ?
Reply | 16.4

Ask | CN(C)c1nc(NCCNS(=O)(=O)c2ccc(C(=O)/C=C/c3ccccc3)cc2)nc(Nc2ccc(F)cc2)n1 [24a] ?
Reply | 57.3

Ask | Nc1nc(N)c2c(n1)NC(c1ccccc1)CC(c1ccc(Nc3nc(NCCO)nc(Nc4ccc(Cl)cc4)n3)cc1)=N2 (centres unmarked) [33a] ?
Reply | 85
